Sourced from the supplement of paper PMC8967900

- System: COG-LL-332h;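 further: ALL cell lines in 384-well plates, five doses spanning 10,000-fold, each plate scaled between vehicle and 100 µmol/L benzalkonium chloride controls, sDSS an adapted area-under-curve metric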
- Assay Method Text: selective drug sensitivity score (sDSS, relative to normal bone marrow) (sDSS (score)); higher = more potent and effective on the cell line relative to normal bone marrow cells
- Condition Description: 72 h
Measurement Type: selective drug sensitivity score

These recorded examples may help you get a feel for the data.
>  <Molecule>
CC1=C(/C=C/C(C)=C/C=C/C(C)=C/C(=O)O)C(C)(C)CCC1 [Tretinoin] (top concentration 10000 nM)

>  <selective drug sensitivity score>
-2.4

$$$$
>  <Molecule>
Cc1cn(-c2cc(NC(=O)c3ccc(C)c(Nc4nccc(-c5cccnc5)n4)c3)cc(C(F)(F)F)c2)cn1 [Nilotinib] (top concentration 10000 nM)

>  <selective drug sensitivity score>
16.4

$$$$
>  <Molecule>
COc1cc2nccc(Oc3ccc(NC(=O)NC4CC4)c(Cl)c3)c2cc1C(N)=O [Lenvatinib] (top concentration 2500 nM)

>  <selective drug sensitivity score>
1.66

$$$$
>  <Molecule>
NC(=O)Nc1cc(-c2cccc(F)c2)sc1C(=O)N[C@H]1CCCNC1 [AZD7762] (top concentration 1000 nM)

>  <selective drug sensitivity score>
-0.8

$$$$

For the molecule CC(C)(C)NC(=O)[C@H]1CC[C@H]2[C@@H]3CC[C@H]4NC(=O)C=C[C@]4(C)[C@H]3CC[C@]12C [Finasteride] (top concentration 10000 nM) , report selective drug sensitivity score.
-0.52

For the molecule Cc1cc(Nc2cc(N3CCN(C)CC3)nc(/C=C/c3ccccc3)n2)n[nH]1 [ENMD-2076] (top concentration 10000 nM) , report selective drug sensitivity score.
4.34

For the molecule CO[C@H]1CC[C@H](N2C(=O)CNc3ncc(-c4ccc(C(C)(C)O)nc4)nc32)CC1 [CC-223] (top concentration 10000 nM) , report selective drug sensitivity score.
1.92

For the molecule Cn1cc(-c2cnn3c(N)c(Br)c([C@@H]4CCCNC4)nc23)cn1 [MK-8776] (top concentration 2500 nM) , report selective drug sensitivity score.
0.34

For the molecule Cc1cnc(-c2ccccc2C(C)C)nc1NCc1ccc(-n2ccnn2)cc1 [ML323] (top concentration 10000 nM) , report selective drug sensitivity score.
2.04

For the molecule CN(C)C/C=C/C(=O)Nc1cc2c(Nc3ccc(F)c(Cl)c3)ncnc2cc1O[C@H]1CCOC1 [Afatinib] (top concentration 1000 nM) , report selective drug sensitivity score.
-0.84

For the molecule Cc1cc([C@@H](C)Nc2ccccc2C(=O)O)c2nc(N3CCOCC3)cc(=O)n2c1 [AZD-6482] (top concentration 2500 nM) , report selective drug sensitivity score.
1.32

For the molecule O=C(NOC[C@H](O)CO)c1ccc(F)c(F)c1Nc1ccc(I)cc1F (top concentration 1000 nM) , report selective drug sensitivity score.
-2.26

For the molecule CN(C)CCCOc1ccc(-c2ccc3ncc4c(c3c2)n(C2CCOCC2)c(=O)n4C)cn1 [AZD0156] (top concentration 1000 nM) , report selective drug sensitivity score.
0.64

For the molecule COc1cc(OC2CCN(C)CC2)ccc1Nc1ncc2c(n1)n(C1CCCC1)c(=O)n2C [AZ3146] (top concentration 10000 nM) , report selective drug sensitivity score.
1.34
